target: human Factor IXa (human, UniProt P00740 47-191; P00740 227-461); test: cell-based or functional assay
Square brackets hold non-standard residues; d marks the D form. Ends that are not written are not given here. NMeL = CN[C@@H](CC(C)C)C(=O)O
outcome_measure: EC50 [µM], FXa generation assay with hFIXa

RRAPGKLQCLASYCWLFWTGIA-NH2 (cysteine pairing not given here) [compound 25] : < 0.5 µM
WSLCFKLTCAYL-NH2 (cysteine pairing not given here) [compound A] : > 100 µM
R[dR]APGKLTCLASYCWLFWTGIA-NH2 (cysteine pairing not given here) [compound 6] : < 0.5 µM

Could you report EC50 [µM], FXa generation assay with hFIXa for every entry in the following list?
1. LYTAWIKCQFARLPGCALSGRW-NH2 (cysteine pairing not given here) [compound C]
2. SKQGRPISPD[dR]RAAGKLTCLASYCWLFWTGIA-NH2 (cysteine pairing not given here) [compound 24]
3. [dK][NMeL]TCLASYCWLFWTGIA-NH2 (cysteine pairing not given here) [compound 10]

Result:
["> 25 µM", "< 0.5 µM", "< 0.5 µM"]
